assayed.system: Botulinum neurotoxin type E (Clostridium botulinum)
method: Inhibition of endopeptidase activity of Clostridium botulinum BoNT/E light chain using SNAP-25 as substrate at 20 uM after 15 mins by HPLC analysis
Listing: inhibition of selected molecules
Give the value, in units of %, as a plain number.

Find inhibition (Botulinum neurotoxin type E (Clostridium botulinum)) for the entry O=C(O)C1CCCCC1C(=O)Nc1ccc2c(c1)Cc1ccccc1-2 (stereo not given)
12

---

assayed.system: Botulinum neurotoxin type E (Clostridium botulinum)
Sequence (whole entry): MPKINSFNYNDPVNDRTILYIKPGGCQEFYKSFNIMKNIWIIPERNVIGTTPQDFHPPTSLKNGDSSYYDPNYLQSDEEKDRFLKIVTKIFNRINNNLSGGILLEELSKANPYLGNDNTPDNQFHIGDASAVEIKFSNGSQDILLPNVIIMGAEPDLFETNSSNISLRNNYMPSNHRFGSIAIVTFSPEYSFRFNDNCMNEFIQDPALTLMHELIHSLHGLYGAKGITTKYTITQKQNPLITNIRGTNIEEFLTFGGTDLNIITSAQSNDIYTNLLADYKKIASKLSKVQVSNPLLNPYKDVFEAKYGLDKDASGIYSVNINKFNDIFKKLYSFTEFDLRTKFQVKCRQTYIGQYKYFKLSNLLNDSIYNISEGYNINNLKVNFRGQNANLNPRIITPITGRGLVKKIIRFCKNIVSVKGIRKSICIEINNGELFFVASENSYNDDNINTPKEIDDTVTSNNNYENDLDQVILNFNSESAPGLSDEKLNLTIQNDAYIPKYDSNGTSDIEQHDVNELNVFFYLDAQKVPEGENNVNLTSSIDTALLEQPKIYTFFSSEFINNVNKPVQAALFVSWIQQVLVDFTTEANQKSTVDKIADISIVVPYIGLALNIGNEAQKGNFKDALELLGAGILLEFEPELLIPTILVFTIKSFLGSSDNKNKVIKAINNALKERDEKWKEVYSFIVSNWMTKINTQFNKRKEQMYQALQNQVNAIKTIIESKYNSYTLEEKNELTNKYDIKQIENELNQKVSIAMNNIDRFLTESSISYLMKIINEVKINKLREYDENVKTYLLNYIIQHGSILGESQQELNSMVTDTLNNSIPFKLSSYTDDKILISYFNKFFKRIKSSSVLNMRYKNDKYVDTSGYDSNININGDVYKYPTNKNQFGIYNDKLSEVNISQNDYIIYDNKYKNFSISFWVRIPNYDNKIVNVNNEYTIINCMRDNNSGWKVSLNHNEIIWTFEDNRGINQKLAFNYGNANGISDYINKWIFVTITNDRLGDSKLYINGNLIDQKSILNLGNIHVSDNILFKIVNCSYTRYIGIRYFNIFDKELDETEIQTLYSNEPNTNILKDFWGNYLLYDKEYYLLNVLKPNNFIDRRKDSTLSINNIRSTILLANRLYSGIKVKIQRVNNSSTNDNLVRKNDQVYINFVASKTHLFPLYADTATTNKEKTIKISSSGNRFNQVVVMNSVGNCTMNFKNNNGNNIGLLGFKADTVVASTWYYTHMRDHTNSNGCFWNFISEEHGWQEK
method: Inhibition of endopeptidase activity of Clostridium botulinum BoNT/E light chain using SNAP-25 as substrate at 20 uM after 15 mins by HPLC analysis
inhibition of 20% or higher: true (1). Under 20%: false (0).

Consider the worked cases shown below.
O=C(O)c1ccccc1C(=O)c1ccc2c3c(cccc13)CC2 : false (0)
O=c1c2cc(Cl)ccc2c2ccc(Cl)cc2c(=O)n1-c1ccc2c(c1)Cc1cc(Cl)cc(Cl)c1-2 : true (1)
O=C(O)c1ccccc1C(=O)c1ccc(O)cc1O : false (0)
O=C(O)c1cc(Cl)ccc1-c1ccc(Cl)cc1C(=O)Nc1ccc2c(c1)Cc1ccccc1-2 : true (1)
O=C(O)c1ccccc1C(=O)Nc1ccc2c(c1)C(=O)c1ccccc1-2 : false (0)

Quick check, inhibition >= 20%? `O=C(O)c1cc(Cl)ccc1-c1ccc(Cl)cc1C(=O)Nc1ccc2c(c1)Cc1cc(Cl)cc(Cl)c1-2`
true (1)

Quick check, inhibition >= 20%? `O=C(O)c1ccccc1C(=O)c1ccc(Cl)cc1`
false (0)

Quick check, inhibition >= 20%? `Cc1cccc(C)c1NC(=S)NNC(=O)c1ccncc1`
true (1)

Quick check, inhibition >= 20%? `O=C(O)c1ccccc1-c1ccccc1C(=O)Nc1ccc2c(c1)Cc1ccccc1-2`
true (1)

Quick check, inhibition >= 20%? `O=C(Nc1ccccc1)c1cc2cc3ccccc3cc2cc1O`
true (1)

---

assayed.system: Botulinum neurotoxin type E (Clostridium botulinum)
method: Inhibition of endopeptidase activity of Clostridium botulinum BoNT/E light chain using SNAP-25 as substrate at 20 uM after 15 mins by HPLC analysis
inhibition of 20% or higher: yes (1). Under 20%: no (0).

Cc1cc2c(cc1C(=O)c1ccccc1C(=O)O)CCCC2 : yes (1)
O=C(O)c1ccccc1C(=O)c1cc(Cl)cc(Cl)c1O : no (0)
O=C(O)c1ccccc1C(=O)c1ccc2c(c1)CCC2 : no (0)

Quick check, inhibition >= 20%? `O=C(NNC(=S)Nc1ccccc1Cl)c1ccncc1`
no (0)

Quick check, inhibition >= 20%? `O=C(O)c1cccc(F)c1C(=O)c1ccc2ccccc2c1`
yes (1)

---

Listing: IC50 of selected compounds
assayed.system: Botulinum neurotoxin type E (Clostridium botulinum, UniProt Q00496)
Sequence (Q00496 whole entry): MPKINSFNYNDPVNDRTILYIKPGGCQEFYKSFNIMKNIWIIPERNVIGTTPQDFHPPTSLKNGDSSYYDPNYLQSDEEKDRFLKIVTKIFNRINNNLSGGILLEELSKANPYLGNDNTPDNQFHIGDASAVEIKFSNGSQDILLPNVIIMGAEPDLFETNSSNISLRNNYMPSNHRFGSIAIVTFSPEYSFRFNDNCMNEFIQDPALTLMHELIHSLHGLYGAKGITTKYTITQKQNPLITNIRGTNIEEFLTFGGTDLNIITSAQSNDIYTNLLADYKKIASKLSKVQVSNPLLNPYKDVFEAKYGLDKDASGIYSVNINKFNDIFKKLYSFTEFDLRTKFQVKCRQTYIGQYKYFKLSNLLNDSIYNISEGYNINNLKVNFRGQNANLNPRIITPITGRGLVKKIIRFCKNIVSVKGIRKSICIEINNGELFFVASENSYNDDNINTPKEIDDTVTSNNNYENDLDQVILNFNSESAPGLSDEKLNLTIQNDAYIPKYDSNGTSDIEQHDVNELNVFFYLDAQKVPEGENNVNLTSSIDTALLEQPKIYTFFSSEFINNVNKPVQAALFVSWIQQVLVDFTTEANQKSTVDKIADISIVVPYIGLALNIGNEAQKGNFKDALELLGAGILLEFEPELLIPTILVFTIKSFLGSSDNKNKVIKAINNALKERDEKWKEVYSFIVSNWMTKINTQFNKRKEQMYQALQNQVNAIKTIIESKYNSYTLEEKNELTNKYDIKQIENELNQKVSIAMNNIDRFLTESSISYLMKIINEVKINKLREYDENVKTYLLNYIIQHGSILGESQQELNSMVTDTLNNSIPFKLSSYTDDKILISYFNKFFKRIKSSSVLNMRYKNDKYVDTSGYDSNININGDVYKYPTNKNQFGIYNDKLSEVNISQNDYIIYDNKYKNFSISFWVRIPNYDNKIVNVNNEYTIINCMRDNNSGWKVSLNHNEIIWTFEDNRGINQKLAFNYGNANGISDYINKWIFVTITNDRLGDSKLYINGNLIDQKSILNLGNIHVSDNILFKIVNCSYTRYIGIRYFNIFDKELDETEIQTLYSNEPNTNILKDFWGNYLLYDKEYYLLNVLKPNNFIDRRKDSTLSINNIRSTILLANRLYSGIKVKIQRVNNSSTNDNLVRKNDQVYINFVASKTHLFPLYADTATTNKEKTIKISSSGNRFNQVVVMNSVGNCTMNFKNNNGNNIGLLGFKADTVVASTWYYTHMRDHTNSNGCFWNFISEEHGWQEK
Give the value, in units of µM, as a plain number.

O=c1c2cc(Cl)ccc2c2ccc(Cl)cc2c(=O)n1-c1ccc2c(c1)Cc1cc(Cl)cc(Cl)c1-2 : 9.8
O=C(O)c1cc([N+](=O)[O-])ccc1-c1ccc([N+](=O)[O-])cc1C(=O)Nc1ccc2c(c1)Cc1ccccc1-2 : 2.7
O=C(O)c1cc(Cl)ccc1-c1ccc(Cl)cc1C(=O)Nc1ccc2c(c1)Cc1cc(Cl)cc(Cl)c1-2 : 3

Requested field: IC50. Item: `O=C(Nc1ccccc1)c1cc2cc3ccccc3cc2cc1O`
2.4

Requested field: IC50. Item: `O=C(O)c1cc(Cl)ccc1-c1ccc(Cl)cc1C(=O)Nc1ccc2c(c1)Cc1ccccc1-2`
3.2

---

assayed.system: Botulinum neurotoxin type E (Clostridium botulinum, UniProt Q00496)
quantity: Ki (µM)
Give the value, in units of µM, as a plain number.

Requested field: Ki. Item: `O=C(O)c1ccccc1C(=O)c1ccc2c(c1)Cc1ccccc1-2`
1.29

---

assayed.system: Botulinum neurotoxin type E (Clostridium botulinum) (UniProt Q00496)
method: Inhibition of endopeptidase activity of Clostridium botulinum BoNT/E light chain using SNAP-25 as substrate at 20 uM after 15 mins by HPLC analysis
inhibition of 20% or higher: Fulfilled. Under 20%: Not fulfilled.

COc1ccc2c(c1)Cc1cc(NC(=O)c3ccccc3-c3ccccc3C(=O)O)ccc1-2 : Fulfilled
O=C(O)c1ccccc1C(=O)c1ccccc1 : Not fulfilled
CC(=O)Nc1cc2c(cc1N)-c1ccccc1C2 : Not fulfilled
c1ccc2c(c1)Cc1ccccc1-2 : Not fulfilled
O=C(O)c1cc([N+](=O)[O-])ccc1-c1ccc([N+](=O)[O-])cc1C(=O)Nc1ccc2c(c1)Cc1ccccc1-2 : Fulfilled
O=c1c2cc(Cl)ccc2c2ccc(Cl)cc2c(=O)n1-c1ccc2c(c1)Cc1ccccc1-2 : Fulfilled
O=C1c2ccccc2-c2ccc(NC(=O)C3CCCCC3C(=O)O)cc21 (stereo not given) : Not fulfilled
O=C(O)c1ccccc1C(=O)Nc1cc2c(cc1Br)-c1ccccc1C2=O : Fulfilled

For the next question, use this compound.
Quick check, inhibition >= 20%? `CNc1ccc(C(=O)c2ccccc2C(=O)O)cc1[N+](=O)[O-]`
Not fulfilled

meta.source: ChEMBL document CHEMBL3826967
